- Measured On: human Adenosine A1 receptor (Homo sapiens (Human))
- Assay Comment: Adenosine receptor TR-FRET binding assay (A1)
- Measurement Setup: inhibition of binding of 100 nM CA200645, CHO cell membranes
- Protocol: Biological Example 1—Adenosine Receptor Time-Resolved Fluorescence Resonance Energy Transfer (TRFRET) Binding Assay […] Serial dilution (1:3 dilutions) of test compounds in neat DMSO and transfer of a 400 nL sample of test compound into the assay plate was carried out using the Mosquito (TTP Labtech, UK). […] Total and non-specific binding of CA200645 was determined in the absence and presence of 10 μM XAC, respectively. […]
pKi: −log10 of the molar value.
Threshold rule: pKi greater than or equal to 7 is rule met; below that, rule not met.

Worked examples follow.
Compound	Label Value
Cc1cc(-c2sc(NC(=O)N3CCC4(CC3)CN(C)C(=O)N4C)nc2-c2cccc(C#N)c2)cc(C)n1 [Example 6.89]	rule not met
Cc1cc(-c2sc(NC(=O)N3CCC(C#N)CC3)nc2-c2cccc(C#N)c2)cc(C)n1 [Example 4.1]	rule met
Cc1cc(-c2sc(NC(=O)N3C4CNCC3C4)nc2-c2cccc(C#N)c2)cc(C)n1 [Example 7.5]	rule met
Cc1cc(-c2sc(NC(=O)N3CC4(COC4)C3)nc2-c2cccc(C#N)c2)cc(Cl)n1 [Example 6.100]	rule met

Now for a further compound.
[ask] Is reported pKi greater than or equal to 7 here: Cc1cc(-c2sc(NC(=O)N3CCC(c4ncc[nH]4)CC3)nc2-c2cccc(C#N)c2)cc(C)n1 [Example 6.25]
[reply] rule met

---

For reference, pKi measured on human Adenosine A3 receptor (Homo sapiens (Human), UniProt P0DMS8):
pKi here: minus log base 10 of the concentration, concentration in moles per litre.

Consider the worked cases shown below.
Compound	Assay Metric	Numeric Readout
Cc1cc(-c2sc(NC(=O)N3CCNC[C@@H]3CO)nc2-c2cccc(C#N)c2)cc(C)n1	pKi	6.65
Cc1cc(-c2sc(NC(=O)N3CCC(C)(C#N)CC3)nc2-c2cccc(C#N)c2)cc(C(C)(C)O)n1	pKi	6.03
Cc1cc(-c2sc(NC(=O)N3CCC[C@@H]3C(C)(C)O)nc2-c2cccc(C#N)c2)cc(Cl)n1	pKi	5.70

Continue with the next compound.
[ask] Consider the compound Cc1cc(-c2sc(NC(=O)N3C[C@@H]4OCCN(C)[C@H]4C3)nc2-c2cccc(C#N)c2)cc(C(F)F)n1 (racemic) and give its measured pKi.
[reply] 6.53

---

- Measured On: human Adenosine A2b receptor (Homo sapiens (Human), UniProt P29275)
- Sequence (P29275 whole entry): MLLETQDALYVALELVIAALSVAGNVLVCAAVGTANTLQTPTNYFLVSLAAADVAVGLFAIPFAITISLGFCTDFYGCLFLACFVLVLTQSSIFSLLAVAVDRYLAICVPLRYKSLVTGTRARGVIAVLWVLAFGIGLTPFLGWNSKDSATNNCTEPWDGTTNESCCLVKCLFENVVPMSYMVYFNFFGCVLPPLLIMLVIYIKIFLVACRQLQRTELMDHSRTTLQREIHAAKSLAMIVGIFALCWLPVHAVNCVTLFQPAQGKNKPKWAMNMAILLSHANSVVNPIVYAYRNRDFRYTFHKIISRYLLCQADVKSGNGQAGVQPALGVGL
- Assay Comment: Adenosine receptor TR-FRET binding assay (A2b)
- Measurement Setup: TR-FRET, inhibition of binding of 30 nM CA200645, CHO cell membranes
- Experimental: Biological Example 1—Adenosine Receptor Time-Resolved Fluorescence Resonance Energy Transfer (TRFRET) Binding Assay […] Serial dilution (1:3 dilutions) of test compounds in neat DMSO and transfer of a 400 nL sample of test compound into the assay plate was carried out using the Mosquito (TTP Labtech, UK). […] Total and non-specific binding of CA200645 was determined in the absence and presence of 10 μM XAC, respectively. […]
Measured pKi by item
pKi here: minus log base 10 of the concentration, concentration in moles per litre.

Consider the worked cases shown below.
1. Cc1cc(-c2sc(NC(=O)N3C[C@@H](C)N[C@@H](C)C3)nc2-c2cccc(C#N)c2)cc(C)n1 6.71
2. Cc1cc(-c2sc(NC(=O)N3CCN(C)C(=O)C3)nc2-c2cccc(C#N)c2)cc(C)n1 8.85
3. Cc1cc(-c2sc(NC(=O)N3CCN[C@H](C(=O)O)C3)nc2-c2cccc(C#N)c2)cc(Cl)n1 7.94

Continue with the next compound.
[ask] Consider the compound Cc1cc(-c2sc(NC(=O)N3CCC4(CC3)COC4)nc2-c2cccc(C#N)c2)cc(C)n1 and give its measured pKi.
[reply] 8.92

---

- Measured On: human Adenosine A2b receptor (Homo sapiens (Human), UniProt P29275)
- Assay Comment: Adenosine receptor TR-FRET binding assay (A2b)
- Measurement Setup: TR-FRET, inhibition of binding of 30 nM CA200645, CHO cell membranes
Assay Metric: Ki (nM)
# unit: nM | format: bare number

Consider the worked cases shown below.
1) Cc1cc(-c2sc(NC(=O)N3CCNCC3(C)C)nc2-c2cccc(C#N)c2)cc(C)n1 44.2
2) Cc1cc(-c2sc(NC(=O)N3CC[C@H](S(C)(=O)=O)C3)nc2-c2cccc(C#N)c2)cc(C)n1 2.1
3) Cc1cc(-c2sc(NC(=O)N3CCNCC3)nc2-c2cccc(C#N)c2)cc(Cl)n1 6.6

Continue with the next molecule.
[ask] Consider the molecule Cc1cc(-c2sc(NC(=O)N3CC4(COC4)C3)nc2-c2cccc(C#N)c2)c(F)c(C)n1 and give its measured Ki.
[reply] 1.3

---

- Measured On: human Adenosine A1 receptor (Homo sapiens (Human), UniProt P30542)
- Sequence (P30542 whole entry): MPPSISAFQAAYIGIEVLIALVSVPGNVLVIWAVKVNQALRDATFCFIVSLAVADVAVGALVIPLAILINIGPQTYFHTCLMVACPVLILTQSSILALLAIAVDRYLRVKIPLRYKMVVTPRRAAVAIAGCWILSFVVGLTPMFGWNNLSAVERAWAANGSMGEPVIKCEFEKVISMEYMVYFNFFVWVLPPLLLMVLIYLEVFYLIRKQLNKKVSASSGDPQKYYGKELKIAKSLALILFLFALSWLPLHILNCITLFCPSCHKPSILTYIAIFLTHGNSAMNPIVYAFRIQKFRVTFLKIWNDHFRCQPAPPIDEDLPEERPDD
- Assay Comment: Adenosine receptor TR-FRET binding assay (A1)
- Measurement Setup: inhibition of binding of 100 nM CA200645, CHO cell membranes
Assay Metric: pKi
pKi here: minus log base 10 of the concentration, concentration in moles per litre.

Consider the worked cases shown below.
1. Cc1cc(-c2sc(NC(=O)N3CCC(C)(C#N)CC3)nc2-c2cccc(C#N)c2)cc(CO)n1 7.15
2. Cc1cc(-c2sc(NC(=O)N3C[C@H]4CC[C@@H]3CN4)nc2-c2cccc(C#N)c2)cc(C)n1 6.79
3. Cc1cc(-c2sc(NC(=O)N3CCN[C@H](C(C)(C)O)C3)nc2-c2cccc(C#N)c2)cc(Cl)n1 7.09

Continue with the next compound.
[ask] Consider the compound Cc1cc(-c2sc(NC(=O)N3CCC(S(C)(=O)=O)CC3)nc2-c2cccc(C#N)c2)cc(C)n1 and give its measured pKi.
[reply] 7.54

---

- Measured On: human Adenosine A1 receptor (Homo sapiens (Human), UniProt P30542)
- Assay Comment: Adenosine receptor TR-FRET binding assay (A1)
- Measurement Setup: inhibition of binding of 100 nM CA200645, CHO cell membranes
Assay Metric: Ki (nM)
# unit: nM | format: bare number

Molecule	Units Symbol	Ki
Cc1cc(-c2sc(NC(=O)N3CCS(=N)(=O)CC3)nc2-c2cccc(C#N)c2)cc(Cl)n1	nM	18
Cc1cc(-c2sc(NC(=O)N3CCNC4(CC4)C3)nc2-c2cccc(C#N)c2)cc(C)n1	nM	27
Cc1cc(-c2sc(NC(=O)N3CCC4(CN(C)CCO4)C3)nc2-c2cccc(C#N)c2)cc(C(F)F)n1 (stereo not drawn)	nM	69
Cc1cc(-c2sc(NC(=O)N3CCC(C)(C#N)CC3)nc2-c2cccc(C#N)c2)cc(C(C)(C)O)n1	nM	6
Cc1cc(-c2sc(NC(=O)N3C[C@H](C)N[C@@H](C)C3)nc2-c2cccc(C#N)c2)cc(C)n1	nM	322
Cc1cc(-c2sc(NC(=O)N3CCC(C(C)(C)O)C3)nc2-c2cccc(C#N)c2)cc(Cl)n1 (stereo not drawn)	nM	234
Cc1cc(-c2sc(NC(=O)N3CCC4(CC3)CNCCO4)nc2-c2cccc(C#N)c2)cc(C)n1	nM	208
Cc1cc(-c2sc(NC(=O)N3CC[C@@H](C(C)(C)O)C3)nc2-c2cccc(C#N)c2)cc(C)n1	nM	133

[ask] Tell me reported Ki for Cc1cc(-c2sc(NC(=O)N3CCC4(CC3)C(=O)N(C)C(=O)N4C)nc2-c2cccc(C#N)c2)cc(C)n1 , tested with human Adenosine A1 receptor (Homo sapiens (Human), UniProt P30542).
[reply] 135

[ask] Tell me reported Ki for Cc1cc(-c2sc(NC(=O)N3CCS(=N)(=O)CC3)nc2-c2cccc(C#N)c2)cc(C)n1 , tested with human Adenosine A1 receptor (Homo sapiens (Human), UniProt P30542).
[reply] 28

---

- Measured On: human Adenosine A1 receptor (Homo sapiens (Human), UniProt P30542)
- Assay Comment: Adenosine receptor TR-FRET binding assay (A1)
- Measurement Setup: inhibition of binding of 100 nM CA200645, CHO cell membranes
Criterion: Ki strictly under 0.05 µM. Met: TRUE. Not met: FALSE.

Compound	Label Value
Cc1cc(-c2sc(NC(=O)N3CCC4(CCOC4)C3)nc2-c2cccc(C#N)c2)cc(C)n1 (stereo not drawn) [Example 6.80]	FALSE
Cc1cc(-c2sc(NC(=O)N3CC4(CNCCO4)C3)nc2-c2cccc(C#N)c2)cc(C)n1 [Example 13.1]	FALSE
Cc1cc(-c2sc(NC(=O)N3CCC(C)(C#N)C3)nc2-c2cccc(C#N)c2)cc(C)n1 (racemic) [Example 27]	TRUE
CN=S1(=O)CCN(C(=O)Nc2nc(-c3cccc(C#N)c3)c(-c3cc(C)nc(C)c3)s2)CC1 [Example 6.32]	FALSE
Cc1cc(-c2sc(NC(=O)N3CCNCC3)nc2-c2cccc(C#N)c2)cc(C)n1 [Example 7]	TRUE

[ask] Please check: Ki for Cc1cc(-c2sc(NC(=O)N3CC4(COC4)C3)nc2-c2cccc(C#N)c2)cc(C(C)O)n1 (racemic) [Example 12.3] , strictly under 0.05 µM or not?
[reply] TRUE

[ask] Please check: Ki for Cc1cc(-c2sc(NC(=O)N3CCNC[C@H]3C)nc2-c2cccc(C#N)c2)cc(C)n1 [Example 13.8] , strictly under 0.05 µM or not?
[reply] TRUE

[ask] Please check: Ki for Cc1cc(-c2sc(NC(=O)N3CCN4C(=O)NCCC4C3)nc2-c2cccc(C#N)c2)cc(C)n1 (stereo not drawn) [Example 6.42] , strictly under 0.05 µM or not?
[reply] TRUE

[ask] Please check: Ki for Cc1cc(-c2sc(NC(=O)N3CCC4(CC3)CN(C)C(=O)O4)nc2-c2cccc(C#N)c2)cc(C)n1 [Example 6.12] , strictly under 0.05 µM or not?
[reply] FALSE

[ask] Please check: Ki for N#Cc1cccc(-c2nc(NC(=O)N3CC4(COC4)C3)sc2-c2cc(CO)nc(C(F)(F)F)c2)c1 [Example 26] , strictly under 0.05 µM or not?
[reply] TRUE
